# target or system: T1, human SIRPγ (human, UniProt Q9P1W8 29-387)
# T1 construct: on transfected CHO-K1 cells; also called hSIRPγ
# T1 sequence (Q9P1W8 29-387 limits assumed): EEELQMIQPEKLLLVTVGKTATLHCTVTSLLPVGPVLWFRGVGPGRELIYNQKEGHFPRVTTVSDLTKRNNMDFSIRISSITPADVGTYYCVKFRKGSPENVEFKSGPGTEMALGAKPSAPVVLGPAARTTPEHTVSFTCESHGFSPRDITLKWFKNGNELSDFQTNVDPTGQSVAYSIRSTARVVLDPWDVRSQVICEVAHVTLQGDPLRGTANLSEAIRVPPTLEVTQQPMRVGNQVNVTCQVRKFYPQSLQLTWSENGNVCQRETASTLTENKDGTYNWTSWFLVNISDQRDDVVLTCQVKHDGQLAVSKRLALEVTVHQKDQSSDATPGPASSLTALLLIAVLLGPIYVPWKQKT
# procedure text: CELISA, CHO-K1 transfectants; extrapolated
Answer each item with its documented EC50.
Please give the number followed by its unit.

Recorded result, hSIRPα.50A.H1L4 (antibody, human IgG4 S228P, kappa, V domains shown, human IgG4 S228P, kappa; also called hSIRPα.50H1L4) VH: EVQLQQSGAEVVKPGASVKVSCKASGFTFTNYYIHWVRQAPGQGLEWIGWIYPGNVNTKYNEKFKARVTITADKSTSTAYMDLSSLRSEDTAVYYCARPTIIATDFDVWGQGTTVTVSS VL: DIQMTQSPSSLSASVGDRVTITCKASQGVGTAVGWYQKKPGKVPKLLIYWASTRHTGVPDRFSGSGSGTDFTLTINGLQPEDVATYYCQQYSTYPFTFGGGTKLEIKR , EC50: 7.43 nM

Lab note: measured EC50 of hSIRPα.50A.H4L2 (antibody, human IgG4 S228P, kappa, V domains shown, human IgG4 S228P, kappa; also called hSIRPα.50H4L2) VH: EVQLQQSGAELVKPGASVKVSCKASGFTFTNYYIHWVRQRPGQGLEWMGWIYPGNVNTKYNEKFKAKATITADKSTSTAYMELSSLTSEDTAVYYCARPTIIATDFDVWGQGTTVTVSS VL: DIVMTQSPSSLSASVGDRVTITCKASQGVGTAVGWYQQKPGKAPKLLIYWASTRHTGVPDRFSGSGSGTDFTLTISNLQPEDFADYYCQQYSTYPFTFGGGTKVEIKR was 0.871 nM

Reported EC50 ( hSIRPα.50A (antibody, V domains shown, light chain constant domain not tied; also called mouse hSIRPα.50A; hSIRPα.50A.mIgG1) VH: QVQLQQSGPELVKPGASVRISCKASGFTFTNYYIHWVKQRPGQGLEWIGWIYPGNVNTKYNEKFKAKATLTADKSSTTAYMQLSSLASEDSAVYFCARPTIIATDFDVWGAGTTVTVSS VL: DIVMTQSHKFMSTSVGDRVNITCKASQGVGTAVGWYQQKPGQSPRLLIYWASTRHTGVPDRFTGSGSGTDFSLAISNVQSEDLADYFCQQYSTYPFTFGGGTNLEIK ) = 1.25 nM
